This collection of values is drawn from ChEMBL document CHEMBL2346657.

Test system: Aspergillus flavus
Method Summary: Antimicrobial activity against Aspergillus flavus MTCC 1973 at 1000 ug/ml after 72 hrs by cup plate method
Assay type: functional
Condition Context: MTCC 1973, 72 h, read-out: IZ
So I've got a bunch of molecules here, and I need their zone of inhibition at 1000 µg/mL values.
Show the value, then the unit it is measured in.

Please give measured zone of inhibition at 1000 µg/mL of the following entry: N#CC1=C(N)OC(c2ccc(Cl)cc2)=CC1c1c(-c2ccccc2)[nH]c2ccc(Cl)cc12 (centres undefined)
13 mm

Please give measured zone of inhibition at 1000 µg/mL of the following entry: Cc1ccc2[nH]c(-c3ccccc3)c(C3C=C(c4ccc(Cl)cc4)Oc4[nH]nc(N)c43)c2c1 (centres undefined)
2 mm

Please give measured zone of inhibition at 1000 µg/mL of the following entry: Cc1ccc2[nH]c(-c3ccccc3)c(C3C=C(c4ccc(Cl)cc4)OC(N)=C3C#N)c2c1 (centres undefined)
8 mm

Please give measured zone of inhibition at 1000 µg/mL of the following entry: Nc1n[nH]c2c1C(c1c(-c3ccccc3)[nH]c3ccccc13)C=C(c1ccccc1)O2 (centres undefined)
3 mm

Please give measured zone of inhibition at 1000 µg/mL of the following entry: Cc1ccc(C2=CC(c3c(-c4ccccc4)[nH]c4ccc(C)cc34)C(C#N)=C(N)O2)cc1 (centres undefined)
0 mm

Please give measured zone of inhibition at 1000 µg/mL of the following entry: Cc1ccc(C2=CC(c3c(-c4ccccc4)[nH]c4ccccc34)C(C#N)=C(N)O2)cc1 (centres undefined)
10 mm

Please give measured zone of inhibition at 1000 µg/mL of the following entry: Nc1n[nH]c2c1C(c1c(-c3ccccc3)[nH]c3ccc(Cl)cc13)C=C(c1ccc(Cl)cc1)O2 (centres undefined)
5 mm

Please give measured zone of inhibition at 1000 µg/mL of the following entry: Nc1nc(=S)[nH]c2c1C(c1c(-c3ccccc3)[nH]c3ccc(Cl)cc13)C=C(c1ccccc1)O2 (centres undefined)
8 mm

Please give measured zone of inhibition at 1000 µg/mL of the following entry: Cc1ccc(C2=CC(c3c(-c4ccccc4)[nH]c4ccc(C)cc34)c3c(N)n[nH]c3O2)cc1 (centres undefined)
3 mm

* * *

Tested on: Aspergillus flavus
Method Summary: Antimicrobial activity against Aspergillus flavus MTCC 1973 at 1000 ug/ml after 72 hrs by cup plate method
Type: functional
Condition Context: MTCC 1973, 72 h, read-out: IZ
Readout Label: log10(zone of inhibition at 1000 µg/mL) (log10 of the value in mm)
Field: value | Transform: log10 | Quantity: zone of inhibition at 1000 µg/mL | Unit: mm

Please give measured log10(zone of inhibition at 1000 µg/mL) of the following entry: N#CC1=C(N)OC(c2ccccc2)=CC1c1c(-c2ccccc2)[nH]c2ccc(Cl)cc12 (centres undefined)
0.48

Please give measured log10(zone of inhibition at 1000 µg/mL) of the following entry: Cc1ccc(C2=CC(c3c(-c4ccccc4)[nH]c4ccc(Cl)cc34)c3c(N)n[nH]c3O2)cc1 (centres undefined)
0.48

Please give measured log10(zone of inhibition at 1000 µg/mL) of the following entry: Cc1ccc2[nH]c(-c3ccccc3)c(C3C=C(c4ccc(Cl)cc4)Oc4nc[nH]c(=O)c43)c2c1 (centres undefined)
0.70

Please give measured log10(zone of inhibition at 1000 µg/mL) of the following entry: Cc1ccc(C2=CC(c3c(-c4ccccc4)[nH]c4ccccc34)c3c(nc[nH]c3=O)O2)cc1 (centres undefined)
0.70

Please give measured log10(zone of inhibition at 1000 µg/mL) of the following entry: Cc1ccc(C2=CC(c3c(-c4ccccc4)[nH]c4ccc(Cl)cc34)c3c(N)nc(=O)[nH]c3O2)cc1 (centres undefined)
1.11

Please give measured log10(zone of inhibition at 1000 µg/mL) of the following entry: Cc1ccc2[nH]c(-c3ccccc3)c(C3C=C(c4ccccc4)Oc4[nH]c(=O)nc(N)c43)c2c1 (centres undefined)
0.85

Please give measured log10(zone of inhibition at 1000 µg/mL) of the following entry: Cc1ccc2[nH]c(-c3ccccc3)c(C3C=C(c4ccccc4)Oc4[nH]c(=S)nc(N)c43)c2c1 (centres undefined)
0.70

Please give measured log10(zone of inhibition at 1000 µg/mL) of the following entry: Nc1nc(=O)[nH]c2c1C(c1c(-c3ccccc3)[nH]c3ccc(Cl)cc13)C=C(c1ccc(Cl)cc1)O2 (centres undefined)
0.60

Please give measured log10(zone of inhibition at 1000 µg/mL) of the following entry: O=c1[nH]cnc2c1C(c1c(-c3ccccc3)[nH]c3ccc(Cl)cc13)C=C(c1ccccc1)O2 (centres undefined)
1.11

Please give measured log10(zone of inhibition at 1000 µg/mL) of the following entry: Cc1ccc2[nH]c(-c3ccccc3)c(C3C=C(c4ccccc4)OC(N)=C3C#N)c2c1 (centres undefined)
0.60

Please give measured log10(zone of inhibition at 1000 µg/mL) of the following entry: Cc1ccc(C2=CC(c3c(-c4ccccc4)[nH]c4ccccc34)c3c(N)nc(=O)[nH]c3O2)cc1 (centres undefined)
0.48

Please give measured log10(zone of inhibition at 1000 µg/mL) of the following entry: Cc1ccc(C2=CC(c3c(-c4ccccc4)[nH]c4ccc(C)cc34)c3c(N)nc(=S)[nH]c3O2)cc1 (centres undefined)
0.95

Please give measured log10(zone of inhibition at 1000 µg/mL) of the following entry: Cc1ccc(C2=CC(c3c(-c4ccccc4)[nH]c4ccccc34)c3c(N)nc(=S)[nH]c3O2)cc1 (centres undefined)
0.48

Please give measured log10(zone of inhibition at 1000 µg/mL) of the following entry: O=c1[nH]cnc2c1C(c1c(-c3ccccc3)[nH]c3ccccc13)C=C(c1ccc(Cl)cc1)O2 (centres undefined)
0.90

Please give measured log10(zone of inhibition at 1000 µg/mL) of the following entry: N#Cc1c(N)c2c(N)c3c(nc2oc1=O)OC(c1ccc(Cl)cc1)=CC3c1c(-c2ccccc2)[nH]c2ccc(Cl)cc12 (centres undefined)
0.90

Please give measured log10(zone of inhibition at 1000 µg/mL) of the following entry: Cc1ccc(C2=CC(c3c(-c4ccccc4)[nH]c4ccc(C)cc34)c3c(nc4oc(=O)c(C#N)c(N)c4c3N)O2)cc1 (centres undefined)
1.11

Please give measured log10(zone of inhibition at 1000 µg/mL) of the following entry: Nc1n[nH]c2c1C(c1c(-c3ccccc3)[nH]c3ccc(Cl)cc13)C=C(c1ccccc1)O2 (centres undefined)
0.95

Please give measured log10(zone of inhibition at 1000 µg/mL) of the following entry: Cc1ccc2[nH]c(-c3ccccc3)c(C3C=C(c4ccccc4)Oc4[nH]nc(N)c43)c2c1 (centres undefined)
0.00

Please give measured log10(zone of inhibition at 1000 µg/mL) of the following entry: Cc1ccc(C2=CC(c3c(-c4ccccc4)[nH]c4ccc(C)cc34)c3c(nc[nH]c3=O)O2)cc1 (centres undefined)
0.95

Please give measured log10(zone of inhibition at 1000 µg/mL) of the following entry: Cc1ccc(C2=CC(c3c(-c4ccccc4)[nH]c4ccc(Cl)cc34)c3c(nc4oc(=O)c(C#N)c(N)c4c3N)O2)cc1 (centres undefined)
0.48

Please give measured log10(zone of inhibition at 1000 µg/mL) of the following entry: O=c1[nH]cnc2c1C(c1c(-c3ccccc3)[nH]c3ccccc13)C=C(c1ccccc1)O2 (centres undefined)
0.95

Please give measured log10(zone of inhibition at 1000 µg/mL) of the following entry: Cc1ccc2[nH]c(-c3ccccc3)c(C3C=C(c4ccc(Cl)cc4)Oc4[nH]c(=S)nc(N)c43)c2c1 (centres undefined)
0.60

Please give measured log10(zone of inhibition at 1000 µg/mL) of the following entry: Nc1nc(=O)[nH]c2c1C(c1c(-c3ccccc3)[nH]c3ccccc13)C=C(c1ccccc1)O2 (centres undefined)
0.95

Please give measured log10(zone of inhibition at 1000 µg/mL) of the following entry: Nc1nc(=S)[nH]c2c1C(c1c(-c3ccccc3)[nH]c3ccccc13)C=C(c1ccc(Cl)cc1)O2 (centres undefined)
0.70

Please give measured log10(zone of inhibition at 1000 µg/mL) of the following entry: Nc1nc(=S)[nH]c2c1C(c1c(-c3ccccc3)[nH]c3ccccc13)C=C(c1ccccc1)O2 (centres undefined)
0.95

Please give measured log10(zone of inhibition at 1000 µg/mL) of the following entry: N#CC1=C(N)OC(c2ccccc2)=CC1c1c(-c2ccccc2)[nH]c2ccccc12 (centres undefined)
1.00

Please give measured log10(zone of inhibition at 1000 µg/mL) of the following entry: Nc1n[nH]c2c1C(c1c(-c3ccccc3)[nH]c3ccccc13)C=C(c1ccc(Cl)cc1)O2 (centres undefined)
0.95

Please give measured log10(zone of inhibition at 1000 µg/mL) of the following entry: Cc1ccc(C2=CC(c3c(-c4ccccc4)[nH]c4ccc(Cl)cc34)C(C#N)=C(N)O2)cc1 (centres undefined)
0.70

Please give measured log10(zone of inhibition at 1000 µg/mL) of the following entry: Nc1nc(=S)[nH]c2c1C(c1c(-c3ccccc3)[nH]c3ccc(Cl)cc13)C=C(c1ccc(Cl)cc1)O2 (centres undefined)
1.04

Please give measured log10(zone of inhibition at 1000 µg/mL) of the following entry: Nc1nc(=O)[nH]c2c1C(c1c(-c3ccccc3)[nH]c3ccccc13)C=C(c1ccc(Cl)cc1)O2 (centres undefined)
1.08

Please give measured log10(zone of inhibition at 1000 µg/mL) of the following entry: N#CC1=C(N)OC(c2ccc(Cl)cc2)=CC1c1c(-c2ccccc2)[nH]c2ccccc12 (centres undefined)
0.30

Please give measured log10(zone of inhibition at 1000 µg/mL) of the following entry: Cc1ccc2[nH]c(-c3ccccc3)c(C3C=C(c4ccc(Cl)cc4)Oc4nc5oc(=O)c(C#N)c(N)c5c(N)c43)c2c1 (centres undefined)
0.70

Please give measured log10(zone of inhibition at 1000 µg/mL) of the following entry: Cc1ccc(C2=CC(c3c(-c4ccccc4)[nH]c4ccc(C)cc34)c3c(N)nc(=O)[nH]c3O2)cc1 (centres undefined)
0.30

Please give measured log10(zone of inhibition at 1000 µg/mL) of the following entry: Nc1nc(=O)[nH]c2c1C(c1c(-c3ccccc3)[nH]c3ccc(Cl)cc13)C=C(c1ccccc1)O2 (centres undefined)
0.95
